Tested on: HeLa Kyoto
assay-method-text: solubility in G1/S (NP-40 vs SDS abundance) (log2 ratio); higher = more soluble
settings: cell cycle stage: G1/S
solubility in G1/S (log2): recorded values

{"columns": ["substance", "readout-value"],
 "data": [
  ["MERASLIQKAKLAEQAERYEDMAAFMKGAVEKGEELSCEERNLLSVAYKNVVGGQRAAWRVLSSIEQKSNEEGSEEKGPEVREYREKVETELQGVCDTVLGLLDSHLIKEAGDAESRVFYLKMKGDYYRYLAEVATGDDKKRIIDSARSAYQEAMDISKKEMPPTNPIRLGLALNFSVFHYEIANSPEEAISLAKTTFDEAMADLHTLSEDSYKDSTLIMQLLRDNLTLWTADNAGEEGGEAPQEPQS [SFN]", 0.311]
]}

## Input For the substance MVDRLANSEANTRRISIVENCFGAAGQPLTIPGRVLIGEGVLTKLCRKKPKARQFFLFNDILVYGNIVIQKKKYNKQHIIPLENVTIDSIKDEGDLRNGWLIKTPTKSFAVYAATATEKSEWMNHINKCVTDLLSKSGKTPSNEHAAVWVPDSEATVCMRCQKAKFTPVNRRHHCRKCGFVVCGPCSEKRFLLPSQSSKPVRICDFCYDLLSAGDMATCQPARSDSYSQSLKSPLNDMSDDDDDDDSSD [PLEKHF2] , what solubility in G1/S (log2) is on record?
## Output 0.163

## Input Can you check ARFGEF2 next?
## Output -0.186

## Input Can you check MELIQDTSRPPLEYVKGVPLIKYFAEALGPLQSFQARPDDLLINTYPKSGTTWVSQILDMIYQGGDLEKCNRAPIYVRVPFLEVNDPGEPSGLETLKDTPPPRLIKSHLPLALLPQTLLDQKVKVVYVARNPKDVAVSYYHFHRMEKAHPEPGTWDSFLEKFMAGEVSYGSWYQHVQEWWELSRTHPVLYLFYEDMKENPKREIQKILEFVGRSLPEETMDFMVQHTSFKEMKKNPMTNYTTVPQELMDHSISPFMRKGMAGDWKTTFTVAQNERFDADYAEKMAGCSLSFRSEL [SULT1A3] next?
## Output 0.432

## Input Can you check MRFLAATFLLLALSTAAQAEPVQFKDCGSVDGVIKEVNVSPCPTQPCQLSKGQSYSVNVTFTSNIQSKSSKAVVHGILMGVPVPFPIPEPDGCKSGINCPIQKDKTYSYLNKLPVKSEYPSIKLVVEWQLQDDKNQSLFCWEIPVQIVSHL [NPC2] next?
## Output 0.123

## Input Can you check MNPSMKQKQEEIKENIKNSSVPRRTLKMIQPSASGSLVGRENELSAGLSKRKHRNDHLTSTTSSPGVIVPESSENKNLGGVTQESFDLMIKENPSSQYWKEVAEKRRKALYEALKENEKLHKEIEQKDNEIARLKKENKELAEVAEHVQYMAELIERLNGEPLDNFESLDNQEFDSEEETVEDSLVEDSEIGTCAEGTVSSSTDAKPCI [GMNN] next?
## Output 0.46

## Input Can you check MASGDFCSPGEGMEILQQVCSKQLPPCNLSKEDLLQNPYFSKLLLNLSQHVDESGLSLTLAKEQAQAWKEVRLHKTTWLRSEILHRVIQELLVDYYVKIQDTNVTSEDKKFHETLEQRLLVTELMRLLGPSQEREIPPLLGLEKADLLELMPLSEDFVWMRARLQQEVEEQLKKKCFTLLCYYDPNSDADSETVKAAKVWKLAEVLVGEQQQCQDAKSQQKEQMLLLEKKSAAYSQVLLRCLTLLQRLLQEHRLKTQSELDRINAQYLEVKCGAMILKLRMEELKILSDTYTVEKVEVHRLIRDRLEGAIHLQEQDMENSRQVLNSYEVLGEEFDRLVKEYTVLKQATENKRWALQEFSKVYR [HAUS4] next?
## Output 0.377

----------
Tested on: HeLa Kyoto
assay-method-text: solubility in G1/S (NP-40 vs SDS abundance) (log2 ratio); higher = more soluble
settings: cell cycle stage: G1/S
assay-readout: solubility in G1/S (log2)
Field format: numeric only.

{"columns": ["record-sequence", "solubility in G1/S (log2)"],
 "data": [
  ["MTELETAMGMIIDVFSRYSGSEGSTQTLTKGELKVLMEKELPGFLQSGKDKDAVDKLLKDLDANGDAQVDFSEFIVFVAAITSACHKYFEKAGLK [S100P]", -0.525]
]}

## Input Item MGSQALPPGPMQTLIFFDMEATGLPFSQPKVTELCLLAVHRCALESPPTSQGPPPTVPPPPRVVDKLSLCVAPGKACSPAASEITGLSTAVLAAHGRQCFDDNLANLLLAFLRRQPQPWCLVAHNGDRYDFPLLQAELAMLGLTSALDGAFCVDSITALKALERASSPSEHGPRKSYSLGSIYTRLYGQSPPDSHTAEGDVLALLSICQWRPQALLRWVDAHARPFGTIRPMYGVTASARTKPRPSAVTTTAHLATTRNTSPSLGESRGTKDLPPVKDPGALSREGLLAPLGLLAILTLAVATLYGLSLATPGE [TREX1] with HeLa Kyoto - solubility in G1/S (log2)?
## Output -0.198

----------
System: HeLa Kyoto
assay-method-text: solubility change mitosis vs G1/S (difference of NP-40 vs SDS log2 ratios) (log2 ratio difference); higher = more soluble in mitosis
solubility change mitosis (log2): recorded values
Field format: numeric only.

{"columns": ["record-sequence", "tested-on", "solubility change mitosis (log2)"],
 "data": [
  ["MVARRRKCAARDPEDRIPSPLGYAAIPIKFSEKQQASHYLYVRAHGVRQGTKSTWPQKRTLFVLNVPPYCTEESLSRLLSTCGLVQSVELQEKPDLAESPKESRSKFFHPKPVPGFQVAYVVFQKPSGVSAALALKGPLLVSTESHPVKSGIHKWISDYADSVPDPEALRVEVDTFMEAYDQKIAEEEAKAKEEEGVPDEEGWVKVTRRGRRPVLPRTEAASLRVLERERRKRSRKELLNFYAWQHRESKMEHLAQLRKKFEEDKQRIELLRAQRKFRPY [RRP7A]", "HeLa Kyoto", 1.02]
]}

## Input For the sequence MDIRPNHTIYINNMNDKIKKEELKRSLYALFSQFGHVVDIVALKTMKMRGQAFVIFKELGSSTNALRQLQGFPFYGKPMRIQYAKTDSDIISKMRGTFADKEKKKEKKKAKTVEQTATTTNKKPGQGTPNSANTQGNSTPNPQVPDYPPNYILFLNNLPEETNEMMLSMLFNQFPGFKEVRLVPGRHDIAFVEFENDGQAGAARDALQGFKITPSHAMKITYAKK [SNRPB2] , what solubility change mitosis (log2) is on record?
## Output 0.472

----------
solubility change mitosis (log2): recorded values
System: HeLa Kyoto
assay-method-text: solubility change mitosis vs G1/S (difference of NP-40 vs SDS log2 ratios) (log2 ratio difference); higher = more soluble in mitosis
Field format: numeric only.

// solved cases for solubility change mitosis (log2) follow
{"columns": ["record-sequence", "tested-on", "assay-readout", "readout-value"],
 "data": [
  ["MWLWEDQGGLLGPFSFLLLVLLLVTRSPVNACLLTGSLFVLLRVFSFEPVPSCRALQVLKPRDRISAIAHRGGSHDAPENTLAAIRQAAKNGATGVELDIEFTSDGIPVLMHDNTVDRTTDGTGRLCDLTFEQIRKLNPAANHRLRNDFPDEKIPTLREAVAECLNHNLTIFFDVKGHAHKATEALKKMYMEFPQLYNNSVVCSFLPEVIYKMRQTDRDVITALTHRPWSLSHTGDGKPRYDTFWKHFIFVMMDILLDWSMHNILWYLCGISAFLMQKDFVSPAYLKKWSAKGIQVVGWTVNTFDEKSYYESHLGSSYITDSMVEDCEPHF [GDE1]", "HeLa Kyoto", "solubility change mitosis (log2)", -0.1],
  ["MATALALRSLYRARPSLRCPPVELPWAPRRGHRLSPADDELYQRTRISLLQREAAQAMYIDSYNSRGFMINGNRVLGPCALLPHSVVQWNVGSHQDITEDSFSLFWLLEPRIEIVVVGTGDRTERLQSQVLQAMRQRGIAVEVQDTPNACATFNFLCHEGRVTGAALIPPPGGTSLTSLGQAAQ [NDUFAF3]", "HeLa Kyoto", "solubility change mitosis (log2)", -0.0203],
  ["MSDDDSRASTSSSSSSSSNQQTEKETNTPKKKESKVSMSKNSKLLSTSAKRIQKELADITLDPPPNCSAGPKGDNIYEWRSTILGPPGSVYEGGVFFLDITFTPEYPFKPPKVTFRTRIYHCNINSQGVICLDILKDNWSPALTISKVLLSICSLLTDCNPADPLVGSIATQYMTNRAEHDRMARQWTKRYAT [UBE2E1]", "HeLa Kyoto", "solubility change mitosis (log2)", -0.151],
  ["MSGRSVRAETRSRAKDDIKKVMAAIEKVRKWEKKWVTVGDTSLRIFKWVPVTDSKEKEKSKSNSSAAREPNGFPSDASANSSLLLEFQDENSNQSSVSDVYQLKVDSSTNSSPSPQQSESLSPAHTSDFRTDDSQPPTLGQEILEEPSLPSSEVADEPPTLTKEEPVPLETQVVEEEEDSGAPPLKRFCVDQPTVPQTASES [BCL7B]", "HeLa Kyoto", "solubility change mitosis (log2)", 0.0126],
  ["MSEVKSRKKSGPKGAPAAEPGKRSEGGKTPVARSSGGGGWADPRTCLSLLSLGTCLGLAWFVFQQSEKFAKVENQYQLLKLETNEFQQLQSKISLISEKWQKSEAIMEQLKSFQIIAHLKRLQEEINEVKTWSNRITEKQDILNNSLTTLSQDITKVDQSTTSMAKDVGLKITSVKTDIRRISGLVTDVISLTDSVQELENKIEKVEKNTVKNIGDLLSSSIDRTATLRKTASENSQRINSVKKTLTELKSDFDKHTDRFLSLEGDRAKVLKTVTFANDLKPKVYNLKKDFSRLEPLVNDLTLRIGRLVTDLLQREKEIAFLSEKISNLTIVQAEIKDIKDEIAHISDMN [IKBIP]", "HeLa Kyoto", "solubility change mitosis (log2)", 0.165]
]}

Now consider the entry below.
## Input For the sequence MAQAHRTPQPRAAPSQPRVFKLVLLGSGSVGKSSLALRYVKNDFKSILPTVGCAFFTKVVDVGATSLKLEIWDTAGQEKYHSVCHLYFRGANAALLVYDITRKDSFLKAQQWLKDLEEELHPGEVLVMLVGNKTDLSQEREVTFQEGKEFADSQKLLFMETSAKLNHQVSEVFNTVAQELLQRSDEEGQALRGDAAVALNKGPARQAKCCAH [RAB17] , what solubility change mitosis (log2) is on record?
## Output -0.134

// data source = the supplement of paper PMC5998384
